Each record here notes measured binding signal.
measured-on: d-enCas12a (Acidaminococcus sp., UniProt U2UMQ6 1-1307, E174R;S542R;K548R;D908A;E993A;D1235A)
test: Spec-seq (native PAGE EMSA with sequencing of bound and unbound); 25 mM Tris-HCl pH 7.4, 150 mM KCl, 5 mM MgCl2, 10% glycerol, 1 mM DTT, 40 ng/uL salmon sperm DNA; 400 nM Cas12a, 480 nM crRNA, 50 nM library, 37 C 1 h; native PAGE at room temperature; high values mean tight binding;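 also: relative affinity from the bound to unbound sequence frequency ratio in Spec-seq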
experimental-setup: protein: recombinant
measurement-type: binding signal (lnKA)

binder: TATA (dsDNA) DNA 1: GCTATCTAGTGCTCAGTACGCACTGTATAAGGAAACTTCTGGCAGGACCAGGTCATGAGATCGGAAGAGCACACGTCTGAACTCCAGTCA DNA 2: TGACTGGAGTTCAGACGTGTGCTCTTCCGATCTCATGACCTGGTCCTGCCAGAAGTTTCCTTATACAGTGCGTACTGAGCACTAGATAGC RNA: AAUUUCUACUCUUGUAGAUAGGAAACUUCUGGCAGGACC
result-number: -0.769
//
binder: GTTT (dsDNA) DNA 1: GCTATCTAGTGCTCAGTACGCACTGGTTTAGGAAACTTCTGGCAGGACCAGGTCATGAGATCGGAAGAGCACACGTCTGAACTCCAGTCA DNA 2: TGACTGGAGTTCAGACGTGTGCTCTTCCGATCTCATGACCTGGTCCTGCCAGAAGTTTCCTAAACCAGTGCGTACTGAGCACTAGATAGC RNA: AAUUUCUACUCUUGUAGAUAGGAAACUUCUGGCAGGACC
result-number: -2.65
//
binder: ACGA (dsDNA) DNA 1: GCTATCTAGTGCTCAGTACGCACTGACGAAGGAAACTTCTGGCAGGACCAGGTCATGAGATCGGAAGAGCACACGTCTGAACTCCAGTCA DNA 2: TGACTGGAGTTCAGACGTGTGCTCTTCCGATCTCATGACCTGGTCCTGCCAGAAGTTTCCTTCGTCAGTGCGTACTGAGCACTAGATAGC RNA: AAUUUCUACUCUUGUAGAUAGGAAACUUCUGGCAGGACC
result-number: -5.84
